Molecular target: GST-Rok-C97-191 (Bacillus subtilis subsp. subtilis str. …, UniProt O34857 97-191)
Sequence: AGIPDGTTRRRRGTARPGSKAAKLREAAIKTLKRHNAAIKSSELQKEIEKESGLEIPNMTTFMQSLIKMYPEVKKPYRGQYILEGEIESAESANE
Test: protein binding microarray; high values mean tight binding
Conditions: protein: recombinant; tags: GST (pTH5325, pDEST15-Magic modified); dsDNA, one strand shown
Whole data set: some 33,000 sequences, median “e-score” near -0.038, cut for the highest 2% near 0.33. The entries come from a sample that favours the highest values as a whole.
Cut-off 0.2 E-score on binding signal, inclusive. At or above means 1 (yes); below means 0 (no).

Solved cases below.
- seq-string: "AACTAACA"
  class-assignment: "0 (no)"
- seq-string: "TACTACCA"
  class-assignment: "1 (yes)"
- seq-string: "CATTATGA"
  class-assignment: "0 (no)"
- seq-string: "GTCTATAA"
  class-assignment: "0 (no)"
- seq-string: "AACTAATA"
  class-assignment: "1 (yes)"

Determine whether this sequence has binding signal no lower than 0.2 E-score: TGCTACCA 0 (no)

Dear colleague, could you confirm whether AATGATGA has binding signal at or above 0.2 E-score? 0 (no)

Determine whether measured binding signal meets or exceeds 0.2 E-score for TTATATAA 1 (yes)

I'd appreciate it if you could say whether ACATATAT has binding signal at least equal to 0.2 E-score. 1 (yes)

I'd appreciate it if you could say whether ATCTATAA has binding signal at least equal to 0.2 E-score. 1 (yes)

Reported binding signal reaches at least 0.2 E-score for CTTTGCGC ? 0 (no)

----------
Biological target: GST-Rok-C97-191 (Bacillus subtilis subsp. subtilis str. …, UniProt O34857 97-191)
Sequence: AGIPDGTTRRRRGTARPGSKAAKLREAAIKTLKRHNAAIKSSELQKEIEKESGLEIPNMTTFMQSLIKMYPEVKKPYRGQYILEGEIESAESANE
Test: protein binding microarray; high values mean tight binding
Conditions: protein: recombinant; tags: GST (pTH5325, pDEST15-Magic modified); dsDNA, one strand shown
Over roughly 33,000 sequences, “e-score” has its median near -0.038; the highest 2% begin near 0.33. For the sample, the highest values were picked, then their nearest neighbours and some sequences at random.
The entries below are paired with their reported binding signal.
Give the number; E-score is assumed, so skip it.

// solved cases for binding signal follow
- seq-string: "AAACATTC"
  binding signal [E-score]: 0.0952
- seq-string: "GCTAAATA"
  binding signal [E-score]: 0.32

Now for the sequence whose binding signal we want.
Fill in the blank: the reported binding signal of ACTGACGG is ____. -0.0188

----------
Target: GST-Rok-C97-191 (Bacillus subtilis subsp. subtilis str. …, UniProt O34857 97-191)
Sequence: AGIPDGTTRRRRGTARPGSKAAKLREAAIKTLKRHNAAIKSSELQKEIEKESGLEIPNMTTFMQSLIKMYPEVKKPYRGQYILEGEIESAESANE
Assay: protein binding microarray; Rok is a gene silencer of Bacillus subtilis; high values mean tight binding
Settings: protein: recombinant; tags: GST (pTH5325, pDEST15-Magic modified); dsDNA, one strand shown
Over roughly 33,000 sequences, “e-score” has its median near -0.038; the highest 2% begin near 0.33. What follows is part of a selection rich in the highest values, with near analogues and random picks from the rest.
We begin with a simple list: items and their reported binding signal.
Number in E-score, nothing else.

// known answers, use as guide
- seq-string: "CGAATATA"
  binding signal [E-score]: 0.245
- seq-string: "CCAAACCA"
  binding signal [E-score]: -0.102
- seq-string: "GATACATA"
  binding signal [E-score]: 0.377
- seq-string: "AGAAAAGC"
  binding signal [E-score]: 0.217
- seq-string: "CGGCTAAC"
  binding signal [E-score]: 0.00729
- seq-string: "AACCTGCG"
  binding signal [E-score]: -0.0596
- seq-string: "GGAATATA"
  binding signal [E-score]: 0.377
- seq-string: "ATACTTTA"
  binding signal [E-score]: 0.196

Please report the recorded binding signal for CAGGAGCA . -0.151

// returns reported binding signal for input GTACCACA 0.0685

Returns the measured binding signal for the input sequence. Input: GCACTATA 0.0612

I have this sequence here, AAGTAAAC , and I need its recorded binding signal. 0.116

Recorded binding signal for CTACTTAA , please? 0.387
